Recorded IC50 values for a group of compounds are listed next.
# target: Cholinesterase (Mus musculus)
# Sequence (Q03311 whole entry): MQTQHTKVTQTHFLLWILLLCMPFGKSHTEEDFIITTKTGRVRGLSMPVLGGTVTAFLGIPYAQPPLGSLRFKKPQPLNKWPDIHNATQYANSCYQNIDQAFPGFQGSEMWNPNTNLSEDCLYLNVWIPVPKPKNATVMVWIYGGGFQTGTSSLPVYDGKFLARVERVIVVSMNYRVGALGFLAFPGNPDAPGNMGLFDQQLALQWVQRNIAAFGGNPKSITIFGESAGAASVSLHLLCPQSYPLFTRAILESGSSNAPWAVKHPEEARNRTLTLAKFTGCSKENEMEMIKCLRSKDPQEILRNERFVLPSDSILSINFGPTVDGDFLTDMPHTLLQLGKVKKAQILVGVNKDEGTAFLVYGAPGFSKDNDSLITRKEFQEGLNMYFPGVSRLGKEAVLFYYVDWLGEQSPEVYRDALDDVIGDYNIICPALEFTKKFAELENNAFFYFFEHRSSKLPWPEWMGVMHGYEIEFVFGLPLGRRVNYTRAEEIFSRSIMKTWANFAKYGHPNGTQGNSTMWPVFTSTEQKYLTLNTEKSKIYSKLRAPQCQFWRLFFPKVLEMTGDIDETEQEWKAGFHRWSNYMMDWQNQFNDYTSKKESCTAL
value-kind: IC50

[
  {
    "compound": "Cc1cccc2c1O[P@@](=O)(OC[C@@H]1C=C[C@H](n3cc(C)c(=O)[nH]c3=O)O1)OC2",
    "result-value": "> 50 µM"
  },
  {
    "compound": "Cc1cccc2c1O[P@](=O)(OC[C@@H]1C=CC(n3cc(C)c(=O)[nH]c3=O)O1)OC2 (single isomer, unassigned)",
    "result-value": "≥ 5 µM"
  },
  {
    "compound": "Cc1cccc2c1OP(=O)(OCC1OC(n3cc(C)c(=O)[nH]c3=O)CC1N=[N+]=[N-])OC2 (stereo unspecified)",
    "result-value": "> 50 µM"
  },
  {
    "compound": "Cc1cccc2c1OP(=O)(OCC1C=CC(n3cnc4c(N)ncnc43)O1)OC2 (stereo unspecified)",
    "result-value": "10.5 µM"
  },
  {
    "compound": "Cc1cccc2c1OP(=O)(OCC1CCC(n3cnc4c(N)ncnc43)O1)OC2 (stereo unspecified)",
    "result-value": "2.35 µM"
  },
  {
    "compound": "Cc1cccc2c1OP(=O)(OC[C@@H]1C[C@H](F)[C@H](n3cnc4c(N)ncnc43)O1)OC2 (stereo partly specified)",
    "result-value": "> 50 µM"
  }
]
